Kindly state T/C for each of the entries shown.
Tested on: L1210 leukemia ip in BDF1 mice, survival T/C
Assay: NCI In Vivo Anticancer Drug Screen. Data for tumor model L1210 Leukemia (intraperitoneal) in B6D2F1 (BDF1) mice
Settings: endpoint: mean survival time; dose: 25.0 mg/kg/injection; schedule: Q04DX003 (ip); vehicle: saline with Tween-80; higher = longer survival
Method: The antitumor activity of compounds was measured in mice bearing transplantable tumors. Survival or tumor size were measured and the results are expressed as the measurement made in the treated group (T) divided by the measurement made in the vehicle treated control group (C). The tumor model used in this assay is L1210 Leukemia (intraperitoneal) in B6D2F1 (BDF1) mice
Toxic doses and inconclusive results are not listed.

molecule	assay target	recorded result
O=C1C(=C(C(F)(F)F)C(F)(F)F)C2CCC1C2 (stereo not given)	L1210 leukemia ip in BDF1 mice, survival T/C	96 % of control
COc1ccccc1[As](=O)(O)CC(O)COc1ccccc1 (stereo not given)	L1210 leukemia ip in BDF1 mice, survival T/C	91 % of control
COc1cccc2c(Cl)c(CCl)c(C)nc12	L1210 leukemia ip in BDF1 mice, survival T/C	92 % of control
O=C(O)CC(Br)C(=O)c1ccccc1 (stereo not given)	L1210 leukemia ip in BDF1 mice, survival T/C	96 % of control

Consider the additional molecule presented here.
Consider the molecule shown here: OC1CC[N-]CC1.OC1CC[N-]CC1.[Cl][Pt+2]([Cl])([Cl])[Cl] What is its recorded T/C?
100 % of control
